The compounds below each have a reported pIC50 tested on Matrix metalloproteinase-9 (Homo sapiens); the values come from various publications.
pIC50 (log units): -log10 of the concentration in mol/L.

# annotated cases, reported pIC50 shown
COc1ccc(S(=O)(=O)N2CC[C@@H](NC(=O)CCC(C)C)C[C@@H]2C(=O)NO)cc1    8.85
O=C1[C@H](NS(=O)(=O)c2ccc(Br)s2)CC=CCN1O    7.55
Cc1cccc(C(=O)NO)c1N(C)S(=O)(=O)c1ccc(OCCCNC(=O)c2cc3ccccc3s2)cc1    5.86
CCN(c1cccn(O)c1=O)S(=O)(=O)c1ccc(Oc2ccc(C)cc2)cc1    8.44

Give the reported pIC50 for O=C(O)[C@@H]1[C@@H](Cn2nnc3ccc(C(F)(F)F)cc3c2=O)CC[C@H]1C(=O)c1ccc(OCc2cccc(N3CCOC3=O)c2)cc1 (single isomer, unassigned) (system: Matrix metalloproteinase-9 (Homo sapiens)).
5.85
